# studySystem: K^b of MHC class I (Mus musculus, UniProt P01901)
# Construct: the cell line (RMA-S) that expresses K^b and D^b molecules; endogenous in cells; host or cells: RMA-S cells
# Sequence (P01901 22-369): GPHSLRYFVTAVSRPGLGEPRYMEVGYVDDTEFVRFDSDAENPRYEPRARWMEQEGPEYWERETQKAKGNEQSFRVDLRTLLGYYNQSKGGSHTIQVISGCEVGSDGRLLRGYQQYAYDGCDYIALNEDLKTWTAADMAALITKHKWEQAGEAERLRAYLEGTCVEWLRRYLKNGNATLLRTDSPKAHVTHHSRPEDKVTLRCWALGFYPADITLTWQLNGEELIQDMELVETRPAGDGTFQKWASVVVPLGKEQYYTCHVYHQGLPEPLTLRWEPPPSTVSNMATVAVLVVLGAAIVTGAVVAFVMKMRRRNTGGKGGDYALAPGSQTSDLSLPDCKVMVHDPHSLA
# Sequence (P01887 21-119 partner): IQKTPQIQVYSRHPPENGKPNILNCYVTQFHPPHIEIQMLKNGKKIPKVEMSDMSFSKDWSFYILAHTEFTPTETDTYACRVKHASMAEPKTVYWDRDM
# runDescription: Binding of peptides to K^b on RMA-S cells (fluorescent antibody staining, binding dissociation constant)
# runParameters: peptide 37° C. 1 hour
# Procedure: Thus, RMA-S was cultured at 26° C. to effect high expression of MHC class I, and the cultured cells were incubated with the solutions of the test peptides at 37° C. for 1 hour. […] Then using fluorescently labeled monoclonal antibody that recognizes MHC class I (K^b, D^b), RMA-S cells were stained. Finally, the binding dissociation constant was calculated from the average amount of fluorescence per cell (Immunol. Lett., 47: 1, 1995).
No end group written: not given here.
Here the recorded Kd is given for each entry.
reportedProperty: Kd (µM)

sequencestring="GASAYGSL [K^b 45]" studysystem="K^b of MHC class I (Mus musculus, UniProt P01901)" reportedproperty=Kd observedmeasurement=26.4
sequencestring="CNKRYFKL [K^b 330]" studysystem="K^b of MHC class I (Mus musculus, UniProt P01901)" reportedproperty=Kd observedmeasurement=1.73
